Test system: K562
Protocol: NCI tumour cell line growth inhibition, 48 h
Activity calls are given as the source filed them. Cut-off read from the data, not from the text of the source: active = GI50 up to about 1.1 µM and inactive = higher.
The categories you may choose from are 1 (active), 0 (inactive)

The following molecules have reported results that may help.
COc1ccccc1/C=N/C12CC3CC(CC(C3)C1)C2 = 0
CC(C)(C)c1ccc2c(c1)CNCCNCc1cc(C(C)(C)C)ccc1OCC1(CO2)COc2ccc(C(C)(C)C)cc2CNCCNCc2cc(C(C)(C)C)ccc2OC1 = 1
CCOC(=O)Oc1cc2c(c(OC)c1OC)-c1ccc(OC)c(=O)cc1C(NC(C)=O)CC2 (stereo not drawn) = 1
Cc1c(Cc2ccccc2)c(Cc2ccccc2)c(C)[s+]1[O-] = 0
Cc1cccc(NC(=O)O/N=C(\Cl)C(C)C)c1 = 0
N=C(/C=C/c1ccc(-c2cn3cc(/C=C/C(=N)N4CCOCC4)ccc3n2)cc1)N1CCOCC1 = 0
N#Cc1ccc(/C=N\N2C(=O)c3ccccc3C2=O)cc1 = 0
CC1CN=C(Nc2cccc(C(F)(F)F)c2)S1 (stereo not drawn) = 0
CC(C)(C)[Si](C)(C)OCCOCn1cc(F)c(=O)[nH]c1=O = 0
Cc1ccc2c(=O)c3cccc(CC(=O)O)c3[nH]c2c1C = 0

For this molecule, state the assay outcome: C/C(Cl)=N/OC(=O)Nc1ccc(S(N)(=O)=O)c(C)c1 0

For this molecule, state the assay outcome: [O-][S+]1c2ccccc2NC(c2ccc3ccccc3c2)CC1c1ccccc1 (stereo not drawn) 0

For this molecule, state the assay outcome: Clc1ccc(-c2nc3cc(Cl)ccc3[nH]2)cc1 0

====

System: DU-145
Protocol: NCI tumour cell line growth inhibition, 48 h
Active and inactive are the calls of the source. No stated cut-off is given here; in the data, active = GI50 up to about 1.1 µM and inactive = higher.
Parameter: GI50

Example entries and their recorded answers appear below.
COc1ccc(/N=c2\ssc(C(=S)Nc3ccc(OC)cc3)c2S)cc1 = > 100 µM (inactive)
O=C1CC(Nc2ccccc2)c2c(Cl)sc(Cl)c21 (centres undefined) = 1.6 µM (inactive)
C/C(Cl)=N/OC(=O)Nc1ccc(S(N)(=O)=O)c(C)c1 = 16.6 µM (inactive)

Now let's try a different one.
Quick check: GI50 of Nc1ccccc1C(=O)NC(=O)Nc1ccc(Oc2ncc(Br)cn2)c(Cl)c1 ? < 0.0123 µM (active)

====

Entries and their measured GI50 follow.
Test system: A498
Protocol: NCI tumour cell line growth inhibition, 48 h
Calls of active or inactive are those of the source. Rule as the data show it: active = GI50 up to about 1.1 µM and inactive = higher.

Example entries and their recorded answers appear below.
COc1ccc(OC)c(C(=O)/C=C/c2cc(O)c(O)cc2F)c1 = 3.17 µM (inactive)
NC(=O)c1nnc2cc(F)c(F)cc2c1N = 41.1 µM (inactive)

Now let's try a different one.
Quick check: GI50 of C=CCOc1ccc(C2C(C(=O)OCC)C(=O)CC(C)(O)C2C(=O)OCC)cc1OC (stereo not drawn) ? > 100 µM (inactive)

====

System: SK-MEL-28
Protocol: NCI tumour cell line growth inhibition, 48 h
Active and inactive are the calls of the source. Rule as the data show it: active = GI50 up to about 1.1 µM and inactive = higher.
Entries and their measured GI50 follow.

Example entries and their recorded answers appear below.
CCOC(=O)C(Cc1cn(S(=O)(=O)c2ccccc2)c2ccccc12)(NC(C)=O)C(=O)OCC = 42.6 µM (inactive)
CCOC(=O)c1nc2ccccc2nc1NCc1ccc(OC)c(OC)c1 = > 100 µM (inactive)
CS(=O)(=O)c1nc(N)nc2nc[nH]c12 = > 100 µM (inactive)
Cc1nc2sc(CCl)nn2c(=O)c1Cl = 12.8 µM (inactive)
NC(S)=Nc1cc(Cl)ccc1Cl = > 100 µM (inactive)

Now let's try a different one.
Quick check: GI50 of N/N=C1/C2CN3CCN(C2)CC1(c1ccc([N+](=O)[O-])cc1)C3 ? > 100 µM (inactive)

====

Entries and their measured GI50 follow.
Test system: CAKI-1
Protocol: NCI tumour cell line growth inhibition, 48 h
Calls of active or inactive are those of the source. Rule as the data show it: active = GI50 up to about 1.1 µM and inactive = higher. Residues, ends and D or L forms follow the SMILES beside them. *: point of attachment. Cbz = O=C(OCc1ccccc1)*

Example entries and their recorded answers appear below.
COC(=O)C1[C@H](C(=O)OC)C1(Br)CBr (stereo partly drawn) = > 100 µM (inactive)
CC(NC(=O)C(NC(=O)OCc1ccccc1)C(C)C)C(=O)NCC(=O)O (stereo not drawn) (Cbz-Val-Ala-Gly-OH; configuration not given here) = > 100 µM (inactive)
NCCN1C(=O)C2C3c4ccccc4C(c4ccccc43)C2C1=O (stereo not drawn) = > 100 µM (inactive)
CCOC(=O)c1c[nH]c2c(Sc3ccccc3)nccc2c1=O = 41.3 µM (inactive)
O=C(CCc1ccc(O)cc1)NCCc1ccc(O)cc1 = > 100 µM (inactive)

Quick check: GI50 of O=C(O)CN1C(=O)CN=C(c2ccccn2)c2cc(Cl)ccc21 ? > 100 µM (inactive)

Quick check: GI50 of O=C1CC(=O)N(c2ccccc2)N1/C(=C/c1ccccc1)c1ccccc1 ? 17.3 µM (inactive)

Quick check: GI50 of O=C(CNC(=O)OCc1ccccc1)NCCCCC(NC(=O)OCc1ccccc1)C(=O)O (stereo not drawn) ? > 100 µM (inactive)

Quick check: GI50 of CCCCCCCCC(=O)CCCCCCCCC(=O)O ? 34.5 µM (inactive)

Quick check: GI50 of O=c1/c(=C/c2c(O)ccc3ccccc23)sc2nc3ccccc3n12 ? > 100 µM (inactive)

Quick check: GI50 of OC1NC2Nc3ccccc3NC2NC1O (stereo not drawn) ? > 100 µM (inactive)

Quick check: GI50 of CCC(C)C1=C(O)[N+]2([O-])Oc3ccc(-c4c(O)c(O)c(-c5ccc(O)cc5)c(OC(C)=O)c4OC(C)=O)cc3OC2(C(C)CC)C(=O)N1O (stereo not drawn) ? > 50 µM (inactive)

Quick check: GI50 of COC(=O)[C@H](Cc1c[nH]c2ccccc12)NC(=O)OCC1OC(n2cc(C)c(=O)[nH]c2=O)CC1N=[N+]=[N-] (stereo partly drawn) ? > 100 µM (inactive)

Quick check: GI50 of CN(C)Cc1cc(/C=C/C(=O)c2ccc(Br)cc2)cc(CN(C)C)c1O ? 8.47 µM (inactive)

Quick check: GI50 of CCC(C)[C@H](NC(=O)[C@H](Cc1ccccc1)NC(=O)N(CC)c1ccccc1)C(=O)N[C@@H](CC(C)C)C(=O)OC (stereo partly drawn) ? 58.5 µM (inactive)

====

Tested on: 786-0
Protocol: NCI tumour cell line growth inhibition, 48 h
Activity calls are given as the source filed them. Rule as the data show it: active = GI50 up to about 1.1 µM and inactive = higher.
The categories you may choose from are active, inactive

For this compound, state the assay outcome: O=C1c2cccc3cc([N+](=O)[O-])cc(c23)C(=O)N1Nc1ccc([N+](=O)[O-])cc1[N+](=O)[O-] inactive

For this compound, state the assay outcome: CCOc1ccccc1NC(=O)CC(C(=O)OC)C(=O)C(=O)OC (stereo not given) inactive

For this compound, state the assay outcome: COc1ccc(/C(=C/n2ccnc2)C(O)c2ccc(OC)c(OC)c2)cc1OC (stereo not given) inactive

For this compound, state the assay outcome: CC12C/C(=C\c3ccccc3)C(=O)C3C1CCCC32 inactive

For this compound, state the assay outcome: CCN(CC)CC(C)(C)C(=O)/C=C/c1cccc(/C=C/C(=O)C(C)(C)CN(CC)CC)c1 active

====

System: UACC-257
Protocol: NCI tumour cell line growth inhibition, 48 h
Calls of active or inactive are those of the source. No stated cut-off is given here; in the data, active = GI50 up to about 1.1 µM and inactive = higher.
The categories you may choose from are YES for active, NO for inactive

Nc1c(Br)cc2c(c1Br)Cc1cc(Br)ccc1-2 = NO

Now look at this one.
For this molecule, state the assay outcome: CCN1CCN=c2c3cc(OC)ccc3n3cnc4ccc1c2c43 YES

====

Entries and their measured GI50 follow.
Test system: A498
Protocol: NCI tumour cell line growth inhibition, 48 h
Activity calls are given as the source filed them. Cut-off read from the data, not from the text of the source: active = GI50 up to about 1.1 µM and inactive = higher.

Example entries and their recorded answers appear below.
c1nnc(NCNc2nncs2)s1 = 4.16 µM (inactive)
CC1(C)Oc2ccc3ccc(=O)oc3c2C(O)C1O (stereo not given) = > 100 µM (inactive)
N#CC(c1ccccc1)c1nc2ccc(N)cc2[n+]([O-])c1C(C#N)c1ccccc1 (stereo not given) = > 100 µM (inactive)
CN(c1ccccc1)C1C(=O)N(c2ccccc2)C1/C=C/c1ccccc1 (stereo not given) = 5.58 µM (inactive)
O=C1NC(=S)N/C1=C\c1ccc(Br)s1 = 34.3 µM (inactive)
N#CC(C(=O)CCC(=O)Nc1ccc(Cl)c(Cl)c1)c1ccccc1 (stereo not given) = > 100 µM (inactive)
C/C(=N/NC(=S)Nc1ccccc1Cl)c1cccc(/C(C)=N\NC(=S)Nc2ccccc2Cl)n1 = > 100 µM (inactive)
CCCCCCCCCCCCCCCCOP(=O)(O)OP(=O)(O)OCC1OC(n2cnc3c(N)ncnc32)C(O)C1O (stereo not given) = > 100 µM (inactive)
Cc1cc(NS(=O)(=O)c2ccc(Nc3c4ccccc4nc4c(C(=O)N5CCN(CCO)CC5)cccc34)cc2)no1 = > 100 µM (inactive)
COc1ccc2[nH]c3c(c2c1)COc1ccccc1C3=O = > 100 µM (inactive)

Given the entry Nc1n2nc(-c3ccccc3)sc2n[n+]1CC(=O)c1ccccc1 , what GI50 was observed with A498? 25.1 µM (inactive)

Given the entry Oc1nnnc2c1sc1ncccc12 , what GI50 was observed with A498? 39.8 µM (inactive)

The values you see were collected from ChEMBL document CHEMBL1201862.
